meta.source: patent US10590094B2

# assay_notes: aqueous solubility (PBS, pH 7.4), shake flask
# Assay type: physicochemical
# condition_summary: PBS buffer, aqueous buffer, kinetic from dmso stock, pH 7.4, shake flask, 24 h incubation, RT, read-out: Solubility [μM] (PBS, pH 7.4, 200 μM Test concentration)
parameter: solubility at 24 h
Param answer (str): number followed by unit.

// field: solubility at 24 h; key: Cc1nc(N(C)C(=O)Cc2ccc(-c3cc(F)ccc3F)cc2)sc1S(=N)(N)=O (stereo not shown) [Example 3] ; value = 16.2 µM

----------
# measured_target: Human Carboanhydrase II (Homo sapiens, UniProt P00918)
# assay_notes: carbonic anhydrase activity assay (pH indicator method)
# Type: biochemical
parameter: IC50

IC50 in this record for Cc1nc(N(C)C(=O)Cc2ccc(-c3cc(F)ccc3F)cc2)sc1S(=N)(N)=O (stereo not shown) [Example 3] : > 5 µM
